- Tested on: ryegrass, Italian (Italian ryegrass, Lolium multiflorum)
- protocol.details: Test D controlled growth environment herbicide test, pre- and postemergence
- Type: in vivo
- run.conditions: Preemergence, 31 g ai/ha
Would you kindly list Plant response rating (scale of 0 to 100), Ryegrass, Italian for each of these compounds?
The answer should be a number; do not append a unit.

Task item: Query the reported Plant response rating (scale of 0 to 100), Ryegrass, Italian for ryegrass, Italian (Italian ryegrass, Lolium multiflorum); item: CC(=O)Oc1c(C)nn(C)c(=O)c1-c1c(C)sc2ccc(Cl)cc12
Reply: 80

Task item: Query the reported Plant response rating (scale of 0 to 100), Ryegrass, Italian for ryegrass, Italian (Italian ryegrass, Lolium multiflorum); item: Cc1ccc2sc(Br)c(-c3c(O)c(C)nn(C)c3=O)c2c1
Reply: 80

Task item: Query the reported Plant response rating (scale of 0 to 100), Ryegrass, Italian for ryegrass, Italian (Italian ryegrass, Lolium multiflorum); item: Cc1cc2ccccc2c(-c2c(O)c(C)nn(C)c2=O)c1C
Reply: 75

Task item: Query the reported Plant response rating (scale of 0 to 100), Ryegrass, Italian for ryegrass, Italian (Italian ryegrass, Lolium multiflorum); item: Cc1nn(C)c(=O)c(-c2c(C)sc3c(C)cc(Cl)cc23)c1O
Reply: 75

Task item: Query the reported Plant response rating (scale of 0 to 100), Ryegrass, Italian for ryegrass, Italian (Italian ryegrass, Lolium multiflorum); item: Cn1nc(Br)c(O)c(-c2cccc3ccccc23)c1=O
Reply: 90

* * *

- Test system: canarygrass (Phalaris minor)
- protocol.details: Test D controlled growth environment herbicide test, pre- and postemergence
- Format: in vivo
- run.conditions: Preemergence, 31 g ai/ha
Threshold-based label: Plant response rating (scale of 0 to 100), Canarygrass under 20 gives True, Plant response rating (scale of 0 to 100), Canarygrass not under 20 gives False.

Task item: Field: below-cutoff. Rule: recorded Plant response rating (scale of 0 to 100), Canarygrass strictly less than 20. Subject: Cc1nn(C)c(=O)c(-c2c(C)sc3ccc(Br)cc23)c1O [Compound 22]
Reply: False

Task item: Field: below-cutoff. Rule: recorded Plant response rating (scale of 0 to 100), Canarygrass strictly less than 20. Subject: Cc1cc(C)c2sc(C)c(-c3c(O)c(C)nn(C)c3=O)c2c1 [Compound 2]
Reply: False

Task item: Field: below-cutoff. Rule: recorded Plant response rating (scale of 0 to 100), Canarygrass strictly less than 20. Subject: Cc1ccc2ccccc2c1-c1c(OC(=O)OC(C)C)c(C)nn(C)c1=O [Compound 72]
Reply: True

Task item: Field: below-cutoff. Rule: recorded Plant response rating (scale of 0 to 100), Canarygrass strictly less than 20. Subject: CCc1sc2c(C)cc(C)cc2c1-c1c(O)c(C)nn(C)c1=O [Compound 57]
Reply: True

Task item: Field: below-cutoff. Rule: recorded Plant response rating (scale of 0 to 100), Canarygrass strictly less than 20. Subject: Cc1nn(C)c(=O)c(-c2ccc(F)c3ccccc23)c1O [Compound 41]
Reply: False

* * *

- Test system: waterhemp (common waterhemp, Amaranthus rudis)
- protocol.details: Test C greenhouse herbicide test, pre- and postemergence
- Type: in vivo
- run.conditions: Preemergence, 250 g ai/ha; scale 0 to 100, 0 no effect, 100 complete control
Would you kindly list Waterhemp plant response rating for each of these compounds?
The answer should be a number; do not append a unit.

Task item: What value of Waterhemp plant response rating has been reported for the following compound? CC(=O)Oc1c(C)nn(C)c(=O)c1-c1c(C)cc(C)c2ccccc12
Reply: 100

Task item: What value of Waterhemp plant response rating has been reported for the following compound? Cc1cc2ccccc2c(-c2c(O)c(C)nn(C)c2=O)c1C
Reply: 100

Task item: What value of Waterhemp plant response rating has been reported for the following compound? COC(=O)Oc1cnn(C)c(=O)c1-c1c(C)sc2ccccc12
Reply: 20

Task item: What value of Waterhemp plant response rating has been reported for the following compound? Cc1nn(C)c(=O)c(-c2ccc(Cl)c3ccccc23)c1O
Reply: 100

Task item: What value of Waterhemp plant response rating has been reported for the following compound? CCC(=O)Oc1c(OC)nn(C)c(=O)c1-c1c(C)sc2ccc(Cl)cc12
Reply: 100

Task item: What value of Waterhemp plant response rating has been reported for the following compound? Cc1ccc2ccccc2c1-c1c(OC(=O)OC(C)C)c(C)nn(C)c1=O
Reply: 90

Task item: What value of Waterhemp plant response rating has been reported for the following compound? Cn1nc(Br)c(O)c(-c2cccc3ccccc23)c1=O
Reply: 100

Task item: What value of Waterhemp plant response rating has been reported for the following compound? CC(=O)Oc1c(Cl)nn(C)c(=O)c1-c1c(C)sc2ccc(C(F)(F)F)cc12
Reply: 75

Task item: What value of Waterhemp plant response rating has been reported for the following compound? CCc1sc2c(C)cc(C)cc2c1-c1c(O)c(C)nn(C)c1=O
Reply: 100

Task item: What value of Waterhemp plant response rating has been reported for the following compound? Cc1nn(C)c(=O)c(-c2ccc(F)c3ccccc23)c1O
Reply: 100

Task item: What value of Waterhemp plant response rating has been reported for the following compound? CC(=O)Oc1c(C)nn(C)c(=O)c1-c1c(C)sc2ccc(Cl)cc12
Reply: 100

Task item: What value of Waterhemp plant response rating has been reported for the following compound? Cc1cc(C)c2sc(C)c(-c3c(O)c(C)nn(C)c3=O)c2c1
Reply: 100

Where do these numbers come from? They come from patent US10597388B2.
